- Test system: phospho-p90 RSK (RSK1 Thr359/Ser363) in A375 (Braf V600E) cells
- Test summary: Phospho-p90 RSK ELISA using A375 (Braf V600E) cells
- Assay type: cell-based
- Protocol conditions: Homo sapiens, A-375, 2 hours compound treatment, read-out: Cellular Phospho-p90RSK IC50
Assay readout: IC50

Return reported IC50. Input molecule: "Cc1cc(-c2n[nH]c3cc4c(cc23)CN(CC2CCOCC2)C(=O)N4)ccn1"
≤ 250 nM

* * *

- System: phospho-p90 RSK (RSK1 Thr359/Ser363) in A375 (Braf V600E) cells
- Test summary: Phospho-p90 RSK ELISA using A375 (Braf V600E) cells
- Format: cell-based
- Protocol conditions: Homo sapiens, A-375, 2 hours compound treatment, read-out: Cellular Phospho-p90RSK IC50
- Procedure: In preparation for the assay, an ELISA plate with the pre-coated goat anti-mouse antibody (Thermo Scientific) was treated with a mouse anti-human RSK1 antibody (monoclonal, Invitrogen) at 1:800 dilution (150 ng/well) in PBS, and the plate was placed on a plate shaker at 4° C. overnight. […] Finally, 100 μL of TMB stop solution (Thermo Scientific) was added to each well and the absorbance is measured at 450 nm on a Tecan plate reader.
pIC50: −log10 of the molar value.
Reported pIC50 by item:

Molecule | Assay readout | Observed result
Cc1cc(-c2n[nH]c3cc4c(cc23)CN(Cc2cc(F)cc(F)c2)C(=O)N4)ccn1 | pIC50 | ≥ 6.60
COc1ncc(-c2n[nH]c3cc4c(cc23)CN(Cc2ccc(F)c(Cl)c2)C(=O)N4)cn1 | pIC50 | ≥ 6.60
Cc1cc(-c2n[nH]c3cc4c(cc23)CN(C2CN(CCC3CC3)C2)C(=O)N4)ccn1 | pIC50 | < 6.00

Return reported pIC50. Input molecule: "CCN1CC[C@@H](N2Cc3cc4c(-c5ccnc(C)c5)n[nH]c4cc3NC2=O)C1"
< 6.00

Return reported pIC50. Input molecule: "Cn1nccc1-c1n[nH]c2cc3c(cc12)CN([C@@H]1CCN(CC(F)(F)F)C1)C(=O)N3"
< 6.00

Return reported pIC50. Input molecule: "COc1ccc(CN2Cc3cc4c(-c5ccnc(C)c5)n[nH]c4cc3NC2=O)cc1"
≥ 6.60

Return reported pIC50. Input molecule: "COc1ncc(-c2n[nH]c3cc4c(cc23)CN([C@H](C)c2cccc(C#N)c2)C(=O)N4)cn1"
6.00 to 6.60

* * *

- System: phospho-p90 RSK (RSK1 Thr359/Ser363) in A375 (Braf V600E) cells
- Test summary: Phospho-p90 RSK ELISA using A375 (Braf V600E) cells
- Assay type: cell-based
- Protocol conditions: Homo sapiens, A-375, 2 hours compound treatment, read-out: Cellular Phospho-p90RSK IC50
pIC50: −log10 of the molar value.
Assay readout: pIC50

Record excerpt, results attached:
Molecule | pIC50
COc1ncccc1CN1CCC[C@@H](N2Cc3cc4c(-c5ccnc(C)c5)n[nH]c4cc3NC2=O)C1 | ≥ 6.60
Cc1cc(-c2n[nH]c3cc4c(cc23)CN(CC2CCC2)C(=O)N4)ccn1 | ≥ 6.60
Cc1cc(-c2n[nH]c3cc4c(cc23)CN([C@@H]2CCCN(C(C)c3ccc(F)cc3)C2)C(=O)N4)ccn1 (stereo partly shown) | ≥ 6.60
Cc1cc(-c2n[nH]c3cc4[nH]c(=O)c(C(C)c5ccc(F)cc5F)cc4cc23)ccn1 (stereo not shown) | ≥ 6.60
O=C1Nc2cc3[nH]nc(N4CCOCC4)c3cc2CN1Cc1cccc(Cl)c1 | ≥ 6.60

Return reported pIC50. Input molecule: "Cn1cc(-c2n[nH]c3cc4c(cc23)CN([C@@H]2CN(CC(F)(F)F)C[C@H]2c2ccccc2)C(=O)N4)ccc1=O"
≥ 6.60

Return reported pIC50. Input molecule: "Cc1cc(-c2n[nH]c3cc4c(cc23)CN([C@H]2CN(CC(F)(F)F)C[C@@H]2c2ccccc2)C(=O)N4)ccn1"
< 6.00

Return reported pIC50. Input molecule: "COc1ncc(-c2n[nH]c3cc4c(cc23)CN(Cc2cc(F)cc(F)c2)C(=O)N4)cn1"
≥ 6.60

Return reported pIC50. Input molecule: Cc1cc(-c2n[nH]c3cc4c(cc23)CN([C@@H]2CN(CC#N)C[C@H]2c2ccccc2)C(=O)N4)ccn1 (mixture of isomers)
≥ 6.60

Return reported pIC50. Input molecule: "Cc1cc(-c2n[nH]c3cc4c(cc23)CN(Cc2ccc(F)cc2F)C(=O)N4)ccn1"
≥ 6.60

Return reported pIC50. Input molecule: "Cc1cc(-c2n[nH]c3cc4[nH]c(=O)c(C5CCCC5)cc4cc23)ccn1"
6.00 to 6.60

* * *

- Test system: phospho-p90 RSK (RSK1 Thr359/Ser363) in A375 (Braf V600E) cells
- Test summary: Phospho-p90 RSK ELISA using A375 (Braf V600E) cells
- Format: cell-based
- Protocol conditions: Homo sapiens, A-375, 2 hours compound treatment, read-out: Cellular Phospho-p90RSK IC50
- Description: In preparation for the assay, an ELISA plate with the pre-coated goat anti-mouse antibody (Thermo Scientific) was treated with a mouse anti-human RSK1 antibody (monoclonal, Invitrogen) at 1:800 dilution (150 ng/well) in PBS, and the plate was placed on a plate shaker at 4° C. overnight. […] Finally, 100 μL of TMB stop solution (Thermo Scientific) was added to each well and the absorbance is measured at 450 nm on a Tecan plate reader.
pIC50: −log10 of the molar value.
Assay readout: pIC50

Compound | pIC50
CC(c1ccccc1)c1cc2cc3c(-c4cccnc4)n[nH]c3cc2[nH]c1=O (stereo not drawn) [Example 330] | ≥ 6.60
Cc1cc(-c2n[nH]c3cc4c(cc23)CN([C@@H]2CCCOC2)C(=O)N4)ccn1 [Example 49] | 6.00 to 6.60

Continue with the next compound.
Return reported pIC50. Input compound: Cc1cc(-c2n[nH]c3cc4[nH]c(=O)c([C@@H](C)c5ccc(F)cc5)cc4cc23)ccn1 [Example 287]
6.00 to 6.60

* * *

- Tested on: phospho-p90 RSK (RSK1 Thr359/Ser363) in A375 (Braf V600E) cells
- Test summary: Phospho-p90 RSK ELISA using A375 (Braf V600E) cells
- Assay type: cell-based
- Protocol conditions: Homo sapiens, A-375, 2 hours compound treatment, read-out: Cellular Phospho-p90RSK IC50
pIC50: −log10 of the molar value.
Reported pIC50 by item:

Record excerpt, results attached:
Molecule | Observed result
Cc1cc(-c2n[nH]c3cc4c(cc23)CN(C2CCN(Cc3ccccc3)CC2)C(=O)N4)ccn1 | 6.00 to 6.60
Cc1cc(-c2n[nH]c3cc4c(cc23)CN([C@@H]2CCCN(CC3CC3)C2)C(=O)N4)ccn1 | 6.00 to 6.60
Cc1cc(-c2n[nH]c3cc4[nH]c(=O)n(CCc5ccccc5)c4cc23)ccn1 | < 6.00

Return reported pIC50. Input molecule: "CN(C)CCN1CCN(c2n[nH]c3cc4c(cc23)CN(Cc2ccc(F)c(Cl)c2)C(=O)N4)CC1"
< 6.00

Return reported pIC50. Input molecule: "Cc1cc(-c2n[nH]c3cc4c(cc23)CN(Cc2nc(C)c(C)s2)C(=O)N4)ccn1"
≥ 6.60

Return reported pIC50. Input molecule: Cc1cc(-c2n[nH]c3cc4c(cc23)CN([C@@H]2CNC[C@H]2c2ccccc2)C(=O)N4)ccn1 (racemic)
6.00 to 6.60

Return reported pIC50. Input molecule: "Cc1cc(-c2n[nH]c3cc4c(cc23)CN([C@@H]2CCCN(Cc3cccc(F)c3)C2)C(=O)N4)ccn1"
≥ 6.60

Return reported pIC50. Input molecule: COc1ncc(-c2n[nH]c3cc4[nH]c(=O)c(C5CCCN(Cc6ccccc6)C5)cc4cc23)cn1 (stereo not shown)
≥ 6.60

Return reported pIC50. Input molecule: "Cc1cc(-c2n[nH]c3cc4c(cc23)CN([C@@H]2CCCN(Cc3ccc(C)s3)C2)C(=O)N4)ccn1"
≥ 6.60

Return reported pIC50. Input molecule: "Cc1cc(-c2n[nH]c3cc4c(cc23)CN(C2CCCC2)C(=O)N4)cc(C)n1"
≥ 6.60

Return reported pIC50. Input molecule: "Cc1cc(-c2n[nH]c3cc4c(cc23)CN([C@@H]2CCN(CC(F)(F)F)C2)C(=O)N4)ccn1"
≥ 6.60

Return reported pIC50. Input molecule: "Cc1cc(-c2n[nH]c3cc4c(cc23)CN([C@@H]2CCCN(CCC3CC3)C2)C(=O)N4)ccn1"
6.00 to 6.60

Return reported pIC50. Input molecule: "O=C1Nc2cc3[nH]nc(-c4cncnc4)c3cc2CN1Cc1cccc(Cl)c1"
≥ 6.60

Return reported pIC50. Input molecule: "O=C1Nc2cc3[nH]nc(-c4ccnnc4)c3cc2CN1Cc1ccc(F)cc1F"
6.00 to 6.60

Return reported pIC50. Input molecule: "Cc1cc(-c2n[nH]c3cc4c(cc23)CN([C@@H]2CCCN(Cc3ncccc3C)C2)C(=O)N4)ccn1"
6.00 to 6.60

Return reported pIC50. Input molecule: "Cc1cc(-c2n[nH]c3cc4c(cc23)CN(CCc2ccc(F)cc2)CC(=O)N4)ccn1"
< 6.00
